The entries below come with measured koff values attached.
system.tested: T1, Mature human CD3e(1-118)_FLAG-chLys_Avi (human)
T1 construct: also called human CD3 epsilon antigen
assay.summary: BLI (Octet HTX); FabCys captured on Fab-specific sensor, CD3e antigen as analyte; 1:1 model

| binder | koff |
| --- | --- |
| MAB-9_h_FabCys (Fab, V domains shown, Tagless disulfide-bridged human FabCys produced in HEK293 cells; also called MAB-9 Fab-Cys) VH: EVQLVESGGGLVQPGGSLRLSCAASGFTFRSHYMTWVRQAPGKGLEWVANIDYEGTRTYYAESVKGRFTISRDNAKNSLYLQMNSLRAEDTAVYYCARGYSAEFAHRSGLDVWGQGTLVTVSS VL: QSVLTQPPSASGTPGQRVTISCSGSSSNIGINYVYWYQQLPGTAPKLLIYRNNIRPSGVPDRFSGSKSGTSASLAISGLRSEDEADYYCAAWDRHSHGAVFGGGTKLTVLG | 0.000122 s⁻¹ |
| MAB-16_h_FabCys (Fab, V domains shown, Tagless disulfide-bridged human FabCys produced in HEK293 cells; also called MAB-16 Fab-Cys) VH: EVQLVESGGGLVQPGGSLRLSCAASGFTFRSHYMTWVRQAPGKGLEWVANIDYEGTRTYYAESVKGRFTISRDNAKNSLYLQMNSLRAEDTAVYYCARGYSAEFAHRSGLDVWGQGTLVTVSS VL: QSVLTQPPSASGTPGQRVTISCSGSSSNIGSNYVYWYQQLPGTAPKLLIYRNNQRPSGVPDRFSGSKSGTSASLAISGLRSEDEADYYCAGWDRRLHGAVFGGGTKLTVLG | 0.000272 s⁻¹ |
| MAB-13_h_FabCys (Fab, V domains shown, Tagless disulfide-bridged human FabCys produced in HEK293 cells; also called MAB-13 Fab-Cys) VH: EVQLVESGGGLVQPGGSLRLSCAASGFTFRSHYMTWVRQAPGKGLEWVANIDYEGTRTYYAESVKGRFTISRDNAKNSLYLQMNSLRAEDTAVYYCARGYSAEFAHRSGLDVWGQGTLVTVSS VL: QSVLTQPPSASGTPGQRVTISCSGSSSNIGINYVYWYQQLPGTAPKLLIYRNNQRPSGVPDRFSGSKSGTSASLAISGLRSEDEADYYCAAWDRHSHGAVFGGGTKLTVLG | 0.000134 s⁻¹ |

All figures here come from patent US20230357398A1.
